Reference source for all entries: patent US20140348836A1

# key: entry, value: Allo DC/T IFN-γ EC50
# TARGET_OR_SYSTEM: human CD40 on cells (human, UniProt P25942 21-277)
# Sequence (P25942 21-277): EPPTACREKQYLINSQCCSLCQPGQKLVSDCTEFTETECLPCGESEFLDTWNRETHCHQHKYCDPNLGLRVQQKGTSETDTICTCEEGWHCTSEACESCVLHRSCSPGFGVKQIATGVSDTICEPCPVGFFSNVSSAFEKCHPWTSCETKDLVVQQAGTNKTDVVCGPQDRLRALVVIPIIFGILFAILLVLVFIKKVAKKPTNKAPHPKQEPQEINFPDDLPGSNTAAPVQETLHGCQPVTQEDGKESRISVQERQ
# ASSAY_EXPLANATION: cell-based or functional assay
The reply should contain only the number, in µg/mL.

Antibody B44 (antibody, V domains shown, Parent agonistic anti-CD40 antibody from the n-CoDeR library; Run alongside the IgG clones as 'B44 antibody' and detected with anti-human Ig on RAMOS cells; also called B44 antibody; original anti-CD40 antibody) VH: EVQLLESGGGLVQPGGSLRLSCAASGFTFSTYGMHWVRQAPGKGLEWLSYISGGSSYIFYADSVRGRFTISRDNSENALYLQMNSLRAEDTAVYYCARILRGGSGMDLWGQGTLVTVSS VL: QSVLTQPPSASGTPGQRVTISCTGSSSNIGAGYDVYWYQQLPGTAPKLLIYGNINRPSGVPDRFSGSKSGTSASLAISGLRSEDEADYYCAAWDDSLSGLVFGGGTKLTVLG | 0.2
Antibody clone H11 (antibody, human IgG1, lambda, V domains shown, also called H11 ANTI-CD40 ANTIBODY) VH: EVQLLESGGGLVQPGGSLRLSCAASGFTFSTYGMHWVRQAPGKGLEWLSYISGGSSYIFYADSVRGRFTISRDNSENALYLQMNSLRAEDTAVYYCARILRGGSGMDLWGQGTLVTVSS VL: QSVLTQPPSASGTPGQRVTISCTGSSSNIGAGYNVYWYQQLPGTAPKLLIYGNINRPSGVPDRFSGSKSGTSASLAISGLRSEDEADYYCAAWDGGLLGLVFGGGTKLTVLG | 0.03
Antibody clone C4 (antibody, human IgG1, lambda, V domains shown, Same VL changes as A4; VH carries S63T; also called C4 ANTI-CD40 ANTIBODY) VH: EVQLLESGGGLVQPGGSLRLSCAASGFTFSTYGMHWVRQAPGKGLEWLSYISGGSSYIFYADTVRGRFTISRDNSENALYLQMNSLRAEDTAVYYCARILRGGSGMDLWGQGTLVTVSS VL: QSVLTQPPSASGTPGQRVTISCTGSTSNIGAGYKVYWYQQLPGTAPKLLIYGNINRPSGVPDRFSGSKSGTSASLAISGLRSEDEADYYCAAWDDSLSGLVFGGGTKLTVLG | 0.12

# ---- query binder ----
Task: I am curious: what Allo DC/T IFN-γ EC50 value has been reported for Antibody clone A5 (antibody, human IgG1, lambda, V domains shown) VH: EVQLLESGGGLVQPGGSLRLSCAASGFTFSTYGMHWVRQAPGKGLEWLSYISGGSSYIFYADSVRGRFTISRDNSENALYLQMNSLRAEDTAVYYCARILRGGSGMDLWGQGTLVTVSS VL: QSVLTQPPSASGTPGQRVTISCTGSSSNIGAGYHVYWYQQLPGTAPKLLIYGSINRPSGVPDRFSGSKSGTSGSLAISGLRSEDEADYYCAAWDSSSSGLVFGGGTKLTVLG ?
Result: 0.08
